System: Pseudomonas aeruginosa PAO1
Assay: MBEC assay, biofilm formation of P. aeruginosa PAO1
Format: cell-based
Settings: biofilm formation, read-out: P. aeruginosa PAO1 inhibitory concentration IC50
Property Measured: IC50 (µM)

CCCCCCCCOCCC(=O)Nc1ccc(F)cc1C(F)(F)F    19
CCCCCCCCCOCC(=O)Nc1ccnn1C    27
CCCCCCCCCCNC(=O)N(C)c1ccccc1    9
CCCCCCCCCC(=O)NC(=O)Nc1ccnn1CC    11
CCCCCCCCCCCC(=O)Nc1cc(C(C)(C)C)nn1C    12

a = CCCCCCCCCCNC(=O)Nc1cc(C(C)(C)C)nn1C
b = CCCCCCCCCCCC(=O)N1CCCC(C(=O)N(CC)CC)C1 (stereo not drawn)
c = CCCCCCCCOCCC(=O)N(C)c1ccc(F)cc1
q: Form: Sort by [IC50] Order [ ascending ] Answer by writing out the labels in the requested order.
a: a, b, c
